System tested: Virion infectivity factor (Human immunodeficiency virus type 1 group M subtype B (isolate BH10)) + Virion infectivity factor (Human immunodeficiency virus type 1 group M subtype B (isolate BRU/LAI)) + Virion infectivity factor (Human immunodeficiency virus type 1 group M subtype B (isolate PCV12)) + Virion infectivity factor (Human immunodeficiency virus type 1 group M subtype B (isolate HXB2)) + DNA dC->dU-editing enzyme APOBEC-3G (Homo sapiens) (UniProt P69720+P69721+P69722+P69723+Q9HC16)
Protocol summary: inhibitors of Vif binding to APOBEC3G peptide, primary screen, biochemical, TR-FRET, GST-Vif 1-94, biotin-A3G peptide, dose response retest (AID 1117319);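 further: Vif residues 1-94 fused to GST binding biotinylated APOBEC3G peptide 110-148; 0% = full assay without inhibitor and 100% = GST in place of GST-Vif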
Experimental context: active compounds read high
In all, about 260,000 compounds went through this assay and about 1,500 (0.58%) were called active. Not shown: some 5% with an inconclusive outcome. A selection follows. Potency and affinity values are given separately.
Readout type: inhibition (%)

[
  {
    "Compound": "O=C(N/N=C/C=C/c1ccccc1)c1cccnc1",
    "Readout type": "inhibition",
    "Numeric result": -6.59
  },
  {
    "Compound": "CC(=O)c1c(C)[nH]c(C(=O)CSc2ccc(F)cc2)c1C",
    "Readout type": "inhibition",
    "Numeric result": 29.5
  },
  {
    "Compound": "O=C(/C=C/c1ccccc1F)c1cccc([N+](=O)[O-])c1",
    "Readout type": "inhibition",
    "Numeric result": -5.2
  },
  {
    "Compound": "COc1cc(-c2nnc(-c3cccs3)o2)cc(OC)c1OC",
    "Readout type": "inhibition",
    "Numeric result": 2.65
  },
  {
    "Compound": "CC(/C=N/NC(=O)c1cccnc1)=C\\c1ccco1",
    "Readout type": "inhibition",
    "Numeric result": 28.6
  },
  {
    "Compound": "O=C(CSc1ncnc2sccc12)Nc1ccccc1F",
    "Readout type": "inhibition",
    "Numeric result": -5.44
  },
  {
    "Compound": "CC(C)CN(C(=O)CN1CCN(c2ccc([N+](=O)[O-])cc2)CC1)c1c(N)n(CC(C)C)c(=O)[nH]c1=O",
    "Readout type": "inhibition",
    "Numeric result": 13.2
  },
  {
    "Compound": "COc1ccc(C(=O)c2ccc(OC)cc2O)c(O)c1",
    "Readout type": "inhibition",
    "Numeric result": 4.6
  },
  {
    "Compound": "COc1ccccc1OCC(=O)N1CCCC(Nc2cccc(F)c2)C1 (centres undefined)",
    "Readout type": "inhibition",
    "Numeric result": -1.81
  },
  {
    "Compound": "C=CCn1c(SCC(=O)NC2CC2)nc2ccccc2c1=O",
    "Readout type": "inhibition",
    "Numeric result": 1.47
  },
  {
    "Compound": "O=C(O)C1Nc2c(Cl)cc(Cl)cc2C2C=CCC12 (centres undefined)",
    "Readout type": "inhibition",
    "Numeric result": 63.7
  },
  {
    "Compound": "CCOC=C1SC(=S)N(c2ccccc2OC)C1=O",
    "Readout type": "inhibition",
    "Numeric result": -1.46
  },
  {
    "Compound": "CCC(NC(=O)NNC(N)=S)(C(F)(F)F)C(F)(F)F",
    "Readout type": "inhibition",
    "Numeric result": 2.24
  },
  {
    "Compound": "O=C(c1ccncc1)N1N=C(C2CC2)CC1(O)C(F)(F)F (centres undefined)",
    "Readout type": "inhibition",
    "Numeric result": -2.38
  },
  {
    "Compound": "CC(=O)n1c2ccccc2c2c1c1ccccc1n2C",
    "Readout type": "inhibition",
    "Numeric result": -6.7
  },
  {
    "Compound": "CO[C@@]12[C@@H]3N[C@@H]3CN1C1=C(C(=O)C(N)=C(C)C1=O)[C@@H]2COC(N)=O",
    "Readout type": "inhibition",
    "Numeric result": 5.83
  },
  {
    "Compound": "C=CCNc1nc(-c2ccc(OC)cc2OC)cs1",
    "Readout type": "inhibition",
    "Numeric result": -8.96
  },
  {
    "Compound": "Cc1cc(C(=O)N2CCN(c3ccccc3Cl)CC2)c(C)o1",
    "Readout type": "inhibition",
    "Numeric result": 3.3
  },
  {
    "Compound": "O=C(Nc1ccnn1C1CCN(Cc2ccc(C#CCCO)cc2)CC1)c1cccc(F)c1",
    "Readout type": "inhibition",
    "Numeric result": 4.84
  },
  {
    "Compound": "CC1(C)Cc2nc3sc4c(=O)n(CC(=O)NCc5ccco5)cnc4c3cc2CO1",
    "Readout type": "inhibition",
    "Numeric result": 2.08
  },
  {
    "Compound": "COc1ccc(-c2nnc(SCC(=O)c3ccc[nH]3)o2)cc1",
    "Readout type": "inhibition",
    "Numeric result": 0.99
  },
  {
    "Compound": "O=C(O)C1Nc2c(C(F)(F)F)ccc(Cl)c2C2C=CCC12 (centres undefined)",
    "Readout type": "inhibition",
    "Numeric result": 24.9
  },
  {
    "Compound": "CC(/C=C/c1ccco1)=N\\NC(=O)c1cccc(Cl)c1",
    "Readout type": "inhibition",
    "Numeric result": -1.59
  },
  {
    "Compound": "CCOc1ncccc1C(=O)OCC(=O)Nc1c(C)cc(C)cc1C",
    "Readout type": "inhibition",
    "Numeric result": 2.59
  }
]
